Cited source: ChEMBL document CHEMBL1764975

system: Escherichia coli; experiment: Inhibition of Escherichia coli DNA gyrase A2B2 complex after 30 mins by supercoiling assay
Catalogue of compounds with associated MNEC
Your answer should be a plain number; it is taken to be in µg/mL.

Would you please look over these solved cases?
{"Chemical string": "COc1cc(O)c2c(c1Br)C(=O)OCC(=O)NCC(=S)N[C@H](c1nc(CNC(C)C)no1)CSC2.Cl", "Target under test": "Escherichia coli", "Unit of measure": "µg/mL", "MNEC": 0.02}
{"Chemical string": "COc1cc(O)c2c(c1Br)C(=O)OCC(=O)NCC(=O)N[C@H](c1nc(CO)no1)CSC2", "Target under test": "Escherichia coli", "Unit of measure": "µg/mL", "MNEC": 0.02}
{"Chemical string": "COc1cc(O)c2c(c1C)C(=O)OCC(=S)NCC(=S)N[C@H](c1nc(C)no1)CSC2", "Target under test": "Escherichia coli", "Unit of measure": "µg/mL", "MNEC": 0.002}
{"Chemical string": "COc1cc(O)c2c(c1C)C(=O)OCC(=O)NCC(=S)N[C@H](c1nc(C)no1)CSC2", "Target under test": "Escherichia coli", "Unit of measure": "µg/mL", "MNEC": 0.001}

Consider the additional compound presented here.
// COc1cc(O)c2c(c1C)C(=O)OCC(=O)NCC(=O)N[C@H](c1nc(C)no1)CSC2 : MNEC value = 0.01

----------
system: Haemophilus influenzae; assay: Antimicrobial activity against multidrug-resistant Haemophilus influenzae after 18 hrs by agar dilution method; assay type: functional
Catalogue of molecules with associated MIC90
Your answer should be a plain number; it is taken to be in µg/mL.

{"Molecule": "CC(=O)NC[C@H]1CN(c2ccc(N3CCOCC3)c(F)c2)C(=O)O1 [LINEZOLID]", "Target under test": "Haemophilus influenzae", "Unit of measure": "µg/mL", "Numeric readout": 16}
{"Molecule": "COc1cc(O)c2c(c1C)C(=O)O[C@H](CO)CCC/C(S)=N/[C@H](c1nc(C)no1)CSC2", "Target under test": "Haemophilus influenzae", "Unit of measure": "µg/mL", "Numeric readout": 8}
{"Molecule": "COc1cc(O)c2c(c1C)C(=O)OCCCCC(=S)N[C@H](c1nc(C)no1)CSC2", "Target under test": "Haemophilus influenzae", "Unit of measure": "µg/mL", "Numeric readout": 16}

Consider the additional molecule presented here.
// COc1cc(O)c2c(c1Br)C(=O)OCC(=O)NCC(=O)N[C@H](c1nc(C)no1)CSC2 : MIC90 value = 4

----------
Catalogue of compounds with associated MIC
system: Streptococcus pyogenes; assay: Antimicrobial activity against Streptococcus pyogenes b15 after 18 hrs by agar dilution method; format: functional; settings: b15, 18 h
Your answer should be a plain number; it is taken to be in µg/mL.

Would you please look over these solved cases?
{"Compound": "COc1cc(O)c2c(c1C)C(=O)OCCCCC(=S)N[C@H](c1nc(CN)no1)CSC2.Cl", "Target under test": "Streptococcus pyogenes", "MIC, µg/mL": 0.5}
{"Compound": "COc1cc(O)c2c(c1C)C(=O)OCCCCC(=O)N[C@H](c1nc(C)no1)CSC2", "Target under test": "Streptococcus pyogenes", "MIC, µg/mL": 1}
{"Compound": "COc1cc(O)c2c(c1C)C(=O)OCCCCC(=S)N[C@H](c1nc(C)no1)CSC2", "Target under test": "Streptococcus pyogenes", "MIC, µg/mL": 0.25}

// COc1cc(O)c2c(c1Br)C(=O)OCC(=O)NCC(=S)N[C@H](c1nc(C)no1)CSC2 : MIC value = 0.12

// COc1cc(O)c2c(c1Br)C(=O)OCC(=O)NCC(=S)N[C@H](c1nc(CNC(C)C)no1)CSC2.Cl : MIC value = 0.25

// CO[C@@H]1[C@@H](OC(N)=O)[C@@H](O)[C@H](Oc2ccc3c(O)c(NC(=O)c4ccc(O)c(CC=C(C)C)c4)c(=O)oc3c2C)OC1(C)C [NOVOBIOCIN] : MIC value = 1
